// reported EC50 per item
- target: Aedes aegypti neuropeptide Y-like receptor 7 (NPYLR7)
- test: agonists of mosquito NPYLR7 receptor, confirmation, cell-based, Aedes aegypti, hit validation, mosquito biting behavior (AID 1259427);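 note: potency of agonists that activate the receptor and raise the calcium signal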
- measurement.parameters: HEK293T NPYLR7/Galpha15/GCaMP6s, calcium fluorescence
Active and inactive are the calls of the source.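 Rule for the calls: active = EC50 at or below a set limit, with no effect in the paired counter-screen assay; inactive = the rest.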

Consider the worked cases shown below.
>>> value_reported("CCOc1cc(/C=C2/Oc3cc(O)ccc3C2=O)cc(Cl)c1OCC(=O)N(C)C")
"16.6 µM"
>>> value_reported("CCOC(=O)C1CCCN(CC(=O)N2N=C(c3ccccc3Cl)CC2c2ccc(Cl)cc2)C1 (stereo not given)")
"> 20 µM (inactive)"
>>> value_reported("COc1ccc(Cl)cc1NC(=O)/C(C#N)=C/c1coc2ccc(C)cc2c1=O")
"> 20 µM (inactive)"
>>> value_reported("Cc1ccc(CNC(=O)NC(c2ccc3c(c2)OCCCO3)C(C)C)cc1F (stereo not given)")
"> 20 µM (inactive)"
>>> value_reported("Cc1ccc(C(=O)C=Cc2ccc(N(C)C)cc2)o1")
"< 0.039 µM (inactive)"

INPUT: Provide value of EC50 for this record tested with Aedes aegypti neuropeptide Y-like receptor 7 (NPYLR7): "O=c1oc2c(CN3CCN(CCO)CC3)c(O)ccc2cc1-c1nc2ccccc2s1"
OUTPUT: < 0.039 µM (inactive)

INPUT: How about "COc1ccc(-c2cccc(-c3ccc(NC(=O)c4oc5ccccc5c4C)cc3)n2)cc1" ?
OUTPUT: > 20 µM (inactive)

INPUT: How about "Clc1cccc2ccc(CN3CCn4cncc4C3)nc12" ?
OUTPUT: > 20 µM (inactive)

INPUT: How about "Cc1ccc(-c2nc3nc(N)n(C)c(=O)c3[nH]c2=O)cc1" ?
OUTPUT: > 20 µM (inactive)
